Exercise: state measured remaining activity at 1 µM for each of the molecules provided.
- Target Of Assay: BRK (Homo sapiens)
- Sequence (Q13882 whole entry): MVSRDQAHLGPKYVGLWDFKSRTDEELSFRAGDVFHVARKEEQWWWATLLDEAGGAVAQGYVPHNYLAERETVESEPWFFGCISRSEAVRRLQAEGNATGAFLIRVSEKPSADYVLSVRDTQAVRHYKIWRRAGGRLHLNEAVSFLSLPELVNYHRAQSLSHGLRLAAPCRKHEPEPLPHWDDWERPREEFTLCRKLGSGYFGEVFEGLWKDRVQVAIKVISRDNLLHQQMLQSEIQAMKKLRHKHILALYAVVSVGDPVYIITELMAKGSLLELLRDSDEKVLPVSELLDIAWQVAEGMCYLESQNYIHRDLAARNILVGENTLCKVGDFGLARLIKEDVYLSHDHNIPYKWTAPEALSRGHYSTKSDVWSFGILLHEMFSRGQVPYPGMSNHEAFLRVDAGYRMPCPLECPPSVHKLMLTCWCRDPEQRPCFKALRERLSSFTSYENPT
- Experimental Protocol: Kinase profiling (radiometric filter-binding)
- Type: biochemical
- Condition Info: 1 µM inhibitor, read-out: Residual activity, %
Square brackets hold non-standard residues; d marks the D form. Peptide text beside a SMILES is read from it. * marks the point of attachment. X3 = O=C(CCCCCNCc1nc2c(sc3cc(Br)cnc32)c(=O)[nH]1)*
Numbers only, in %.

* N=C(N)NCCC[C@@H](NC(=O)CCCCCNC(=O)Cn1cnc2c(I)c(I)c(I)c(I)c21)C(=O)N[C@H](CCCNC(=N)N)C(=O)N[C@H](CCCNC(=N)N)C(=O)N[C@H](CCCNC(=N)N)C(=O)N[C@H](CCCNC(=N)N)C(=O)N[C@H](CCCNC(=N)N)C(=O)N[C@H](CCCCN)C(N)=O | 82
* N=C(N)NCCC[C@@H](NC(=O)CNC(=O)[C@@H](CCCNC(=N)N)NC(=O)[C@@H](CCCNC(=N)N)NC(=O)CCCCCCCNCc1nc2c(sc3ccc(Br)cc32)c(=O)[nH]1)C(=O)N[C@H](CCCCN)C(N)=O | 114
* N=C(N)NCCC[C@@H](NC(=O)CNC(=O)[C@@H](CCCNC(=N)N)NC(=O)[C@@H](CCCNC(=N)N)NC(=O)Cn1cc(CNCc2nc3c(sc4ccc(Br)cc43)c(=O)[nH]2)nn1)C(=O)N[C@H](CCCCN)C(N)=O | 114

// each molecule listed below needs its remaining activity at 1 µM
1. N=C(N)NCCC[C@@H](NC(=O)CNC(=O)[C@@H](CCCNC(=N)N)NC(=O)[C@@H](CCCNC(=N)N)NC(=O)CCCCCCCNCc1nc2c(sc3cc(Br)cnc32)c(=O)[nH]1)C(=O)N[C@H](CCCCN)C(N)=O
2. N=C(N)NCCC[C@@H](NC(=O)CCCCCNCc1nc2c(sc3cc(Br)cnc32)c(=O)[nH]1)C(=O)N[C@H](CCCNC(=N)N)C(=O)N[C@H](CCCNC(=N)N)C(=O)N[C@H](CCCNC(=N)N)C(=O)N[C@H](CCCNC(=N)N)C(=O)N[C@H](CCCNC(=N)N)C(=O)N[C@H](CCCCN)C(N)=O [ARC-3126, BPTP-Ahx-(D-Arg)6-D-Lys-NH2] (X3-[dR][dR][dR][dR][dR][dR][dK]-NH2)

A:
126
81

====

- Target Of Assay: PLK1 (Homo sapiens)
- Sequence (P53350 whole entry): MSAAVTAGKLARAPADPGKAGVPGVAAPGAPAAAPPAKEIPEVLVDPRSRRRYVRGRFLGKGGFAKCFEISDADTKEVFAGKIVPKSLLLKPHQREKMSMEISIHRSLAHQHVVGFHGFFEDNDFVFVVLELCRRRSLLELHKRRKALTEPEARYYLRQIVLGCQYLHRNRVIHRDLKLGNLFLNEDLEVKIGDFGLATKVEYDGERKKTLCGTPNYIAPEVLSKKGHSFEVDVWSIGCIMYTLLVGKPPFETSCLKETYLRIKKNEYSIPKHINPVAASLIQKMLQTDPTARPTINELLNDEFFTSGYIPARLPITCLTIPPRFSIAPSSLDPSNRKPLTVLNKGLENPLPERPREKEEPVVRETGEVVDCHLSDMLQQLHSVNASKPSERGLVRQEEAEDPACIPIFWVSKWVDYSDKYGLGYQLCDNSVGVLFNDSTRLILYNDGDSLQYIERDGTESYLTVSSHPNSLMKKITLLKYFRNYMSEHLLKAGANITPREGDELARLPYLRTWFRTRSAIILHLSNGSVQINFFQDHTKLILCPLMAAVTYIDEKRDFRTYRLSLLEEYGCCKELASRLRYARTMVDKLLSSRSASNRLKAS
- Experimental Protocol: Kinase profiling (radiometric filter-binding)
- Type: biochemical
- Condition Info: PLK1, 1 µM inhibitor; read-out: Residual activity, %
Square brackets hold non-standard residues; d marks the D form. Peptide text beside a SMILES is read from it. * marks the point of attachment. X3 = O=C(CCCCCNCc1nc2c(sc3cc(Br)cnc32)c(=O)[nH]1)*
Hi there, I'd appreciate the recorded remaining activity at 1 µM for every entry that follows.
Answers are plain numbers, in %.

* N=C(N)NCCC[C@@H](NC(=O)CCCCCNC(=O)Cn1cnc2c(I)c(I)c(I)c(I)c21)C(=O)N[C@H](CCCNC(=N)N)C(=O)N[C@H](CCCNC(=N)N)C(=O)N[C@H](CCCNC(=N)N)C(=O)N[C@H](CCCNC(=N)N)C(=O)N[C@H](CCCNC(=N)N)C(=O)N[C@H](CCCCN)C(N)=O [ARC-3125, TIBI-CH2-C(=O)-Ahx-(D-Arg)6-D-Lys-NH2] | 40

Hello, I would appreciate it if you could give remaining activity at 1 µM for each entry below.
1. N=C(N)NCCC[C@@H](NC(=O)CCCCCNCc1nc2c(sc3cc(Br)cnc32)c(=O)[nH]1)C(=O)N[C@H](CCCNC(=N)N)C(=O)N[C@H](CCCNC(=N)N)C(=O)N[C@H](CCCNC(=N)N)C(=O)N[C@H](CCCNC(=N)N)C(=O)N[C@H](CCCNC(=N)N)C(=O)N[C@H](CCCCN)C(N)=O [ARC-3126, BPTP-Ahx-(D-Arg)6-D-Lys-NH2] (X3-[dR][dR][dR][dR][dR][dR][dK]-NH2)
2. N=C(N)NCCC[C@@H](NC(=O)CNC(=O)[C@@H](CCCNC(=N)N)NC(=O)[C@@H](CCCNC(=N)N)NC(=O)CCCCCCCNCc1nc2c(sc3ccc(Br)cc32)c(=O)[nH]1)C(=O)N[C@H](CCCCN)C(N)=O [Compound 2, BBTP-Aoc-(D-Arg)2-Gly-D-Arg-D-Lys-NH2]
3. N=C(N)NCCC[C@@H](NC(=O)CNC(=O)[C@@H](CCCNC(=N)N)NC(=O)[C@@H](CCCNC(=N)N)NC(=O)CCCCCCCNCc1nc2c(sc3cc(Br)cnc32)c(=O)[nH]1)C(=O)N[C@H](CCCCN)C(N)=O [Compound 1, BPTP-Aoc-(D-Arg)2-Gly-D-Arg-D-Lys-NH2]
4. N=C(N)NCCC[C@@H](NC(=O)CNC(=O)[C@@H](CCCNC(=N)N)NC(=O)[C@@H](CCCNC(=N)N)NC(=O)Cn1cc(CNCc2nc3c(sc4ccc(Br)cc43)c(=O)[nH]2)nn1)C(=O)N[C@H](CCCCN)C(N)=O [Compound 3, BBTP-Amt-(D-Arg)2-Gly-D-Arg-D-Lys-NH2]

A:
1. 50
2. 99
3. 99
4. 97

====

- Target Of Assay: MAP4K3 (Homo sapiens, UniProt Q8IVH8)
- Sequence (Q8IVH8 1-894): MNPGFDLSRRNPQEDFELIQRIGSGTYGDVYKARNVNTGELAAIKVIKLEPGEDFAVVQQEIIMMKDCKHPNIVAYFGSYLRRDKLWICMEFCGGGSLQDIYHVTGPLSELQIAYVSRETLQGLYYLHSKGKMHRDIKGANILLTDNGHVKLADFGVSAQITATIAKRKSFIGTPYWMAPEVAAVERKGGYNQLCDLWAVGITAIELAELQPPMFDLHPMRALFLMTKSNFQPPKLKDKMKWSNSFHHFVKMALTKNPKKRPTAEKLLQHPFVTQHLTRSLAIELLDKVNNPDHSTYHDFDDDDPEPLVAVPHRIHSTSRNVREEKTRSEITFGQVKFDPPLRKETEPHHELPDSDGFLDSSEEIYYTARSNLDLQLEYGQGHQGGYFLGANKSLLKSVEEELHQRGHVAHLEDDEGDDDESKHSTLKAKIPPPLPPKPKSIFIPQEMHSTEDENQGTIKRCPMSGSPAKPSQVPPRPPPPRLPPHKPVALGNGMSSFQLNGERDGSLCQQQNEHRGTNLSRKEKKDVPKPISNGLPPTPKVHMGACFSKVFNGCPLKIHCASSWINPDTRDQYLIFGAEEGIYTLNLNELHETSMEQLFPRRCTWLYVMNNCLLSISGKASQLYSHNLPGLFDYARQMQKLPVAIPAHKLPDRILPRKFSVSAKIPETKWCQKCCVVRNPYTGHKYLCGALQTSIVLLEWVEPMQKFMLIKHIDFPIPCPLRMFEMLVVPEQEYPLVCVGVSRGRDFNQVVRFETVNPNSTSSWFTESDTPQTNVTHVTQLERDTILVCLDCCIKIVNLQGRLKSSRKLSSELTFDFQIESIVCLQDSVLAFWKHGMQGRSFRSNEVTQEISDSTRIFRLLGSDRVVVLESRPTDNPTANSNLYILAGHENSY
- Experimental Protocol: Kinase profiling (radiometric filter-binding)
- Type: biochemical
- Condition Info: MAP4K3, 1 µM inhibitor; read-out: Residual activity, %
Square brackets hold non-standard residues; d marks the D form. Peptide text beside a SMILES is read from it. * marks the point of attachment. X3 = O=C(CCCCCNCc1nc2c(sc3cc(Br)cnc32)c(=O)[nH]1)*
Property Measured: remaining activity at 1 µM (%)
Numbers only, in %.

* N=C(N)NCCC[C@@H](NC(=O)CCCCCNCc1nc2c(sc3cc(Br)cnc32)c(=O)[nH]1)C(=O)N[C@H](CCCNC(=N)N)C(=O)N[C@H](CCCNC(=N)N)C(=O)N[C@H](CCCNC(=N)N)C(=O)N[C@H](CCCNC(=N)N)C(=O)N[C@H](CCCNC(=N)N)C(=O)N[C@H](CCCCN)C(N)=O [ARC-3126, BPTP-Ahx-(D-Arg)6-D-Lys-NH2] (X3-[dR][dR][dR][dR][dR][dR][dK]-NH2) | 81
* N=C(N)NCCC[C@@H](NC(=O)CNC(=O)[C@@H](CCCNC(=N)N)NC(=O)[C@@H](CCCNC(=N)N)NC(=O)CCCCCCCNCc1nc2c(sc3cc(Br)cnc32)c(=O)[nH]1)C(=O)N[C@H](CCCCN)C(N)=O | 119
* N=C(N)NCCC[C@@H](NC(=O)CNC(=O)[C@@H](CCCNC(=N)N)NC(=O)[C@@H](CCCNC(=N)N)NC(=O)CCCCCCCNCc1nc2c(sc3ccc(Br)cc32)c(=O)[nH]1)C(=O)N[C@H](CCCCN)C(N)=O | 118
* N=C(N)NCCC[C@@H](NC(=O)CCCCCNC(=O)Cn1cnc2c(I)c(I)c(I)c(I)c21)C(=O)N[C@H](CCCNC(=N)N)C(=O)N[C@H](CCCNC(=N)N)C(=O)N[C@H](CCCNC(=N)N)C(=O)N[C@H](CCCNC(=N)N)C(=O)N[C@H](CCCNC(=N)N)C(=O)N[C@H](CCCCN)C(N)=O | 17

Q: Return reported remaining activity at 1 µM; argument: N=C(N)NCCC[C@@H](NC(=O)CNC(=O)[C@@H](CCCNC(=N)N)NC(=O)[C@@H](CCCNC(=N)N)NC(=O)Cn1cc(CNCc2nc3c(sc4ccc(Br)cc43)c(=O)[nH]2)nn1)C(=O)N[C@H](CCCCN)C(N)=O
A: 105
